For each record, write down the corresponding T/C.
tested on: L1210 leukemia ip in BDF1 mice, survival T/C; test: NCI In Vivo Anticancer Drug Screen. Data for tumor model L1210 Leukemia (intraperitoneal) in B6D2F1 (BDF1) mice; details: endpoint: mean survival time; dose: 200.0 mg/kg/injection; schedule: Q04DX003 (ip); vehicle: saline; higher = longer survival
Inconclusive results and toxic doses are left out.

molecule	experimental result
Cc1cccc(C)c1C1CC1S(=O)(=O)c1ccccc1 (stereo not given)	94 % of control
C[n+]1c(-c2ccc(Cl)c(Cl)c2)c2cc([N+](=O)[O-])ccc2c2ccccc21	93 % of control
O=[N+]([O-])c1ccc(N/N=C/CC(O)CO)c([N+](=O)[O-])c1 (stereo not given)	90 % of control

# batch: return T/C for each of the 3 molecules below
1. Cc1ccc(S(=O)(=O)CCCCCl)cc1
2. Cc1nc[nH]c(=O)c1CCC1OCCO1
3. CC(O)COCc1ccccc1 (stereo not given)

Response:
92 % of control
98 % of control
94 % of control

# batch: return T/C for each of the 2 molecules below
1. O=C(n1ccnc1)C(F)(F)F
2. O=S(=O)(O)CCN1CCN(CCO)CC1

Response:
1: 91 % of control; 2: 101 % of control

# batch: return T/C for each of the 2 molecules below
1. CSc1ccccc1C(O)Cc1ccc([N+](=O)[O-])cc1 (stereo not given)
2. CC(=O)CO

Response:
98 % of control
96 % of control

====

system: L1210 leukemia ip in BDF1 mice, survival T/C; assay: NCI In Vivo Anticancer Drug Screen. Data for tumor model L1210 Leukemia (intraperitoneal) in B6D2F1 (BDF1) mice; details: endpoint: mean survival time; dose: 400.0 mg/kg/injection; schedule: Q04DX003 (ip); vehicle: acetone; higher = longer survival
Toxic doses and inconclusive results are not listed.
For each record, write down the corresponding T/C.

compound	experimental result
O=C(COc1ccc([N+](=O)[O-])cc1Cl)Nc1ccccc1	94 % of control
Cc1cccc(CC(O)(CC(O)(c2ccccc2)c2ccccc2)c2ccccc2)c1 (stereo not drawn)	97 % of control
CCOc1ccc2nc(C)sc2c1	93 % of control
Cc1ccc(S(=O)(=O)NC(c2ccccc2)(c2ccccc2)c2ccccc2)cc1	96 % of control
CC(S)CNCCSC(=O)c1ccccc1 (stereo not drawn)	97 % of control
CC1COC(C(C)C)O1 (stereo not drawn)	90 % of control
O=[N+]([O-])c1ccc2scnc2c1	96 % of control

Query compound follows.
Measured T/C, CCOC(=O)Cc1cc(=O)c2ccccc2[nH]1 : 103 % of control

====

For each record, write down the corresponding T/C.
tested on: L1210 leukemia ip in BDF1 mice, survival T/C; experiment: NCI In Vivo Anticancer Drug Screen. Data for tumor model L1210 Leukemia (intraperitoneal) in B6D2F1 (BDF1) mice; settings: endpoint: mean survival time; dose: 150.0 mg/kg/injection; schedule: Q01DX009 (ip); vehicle: saline; higher = longer survival
Inconclusive results and toxic doses are left out.

# batch: return T/C for each of the 4 molecules below
1. Cc1c2ccccc2c(CNCCSCCCl)c2ccc3ccccc3c12
2. C1CCCCCC(C2CCCCCCCCCCC2)CCCCC1
3. O=c1[nH]c2ccc(F)cc2c(=O)o1
4. O=C(O)C1C(C(=O)O)C2(Cl)C(Cl)=C(Cl)C1(Cl)C2(Cl)Cl.[Mn] (centres undefined)

Response:
["109 % of control", "90 % of control", "93 % of control", "112 % of control"]

====

test system: L1210 leukemia ip in BDF1 mice, survival T/C; test: NCI In Vivo Anticancer Drug Screen. Data for tumor model L1210 Leukemia (intraperitoneal) in B6D2F1 (BDF1) mice; details: endpoint: mean survival time; dose: 100.0 mg/kg/injection; schedule: Q04DX003 (ip); vehicle: other; higher = longer survival
Inconclusive results and toxic doses are left out.
measurement type: T/C

Examples from the recorded data:
compound	experimental system	T/C
O=S(=O)(OCC1C2CCC1CC2)c1ccccc1 (stereo not drawn)	L1210 leukemia ip in BDF1 mice, survival T/C	104 % of control
CCCCOC(=O)c1ccc(OC(=O)Nc2ccc([N+](=O)[O-])cc2OC)cc1	L1210 leukemia ip in BDF1 mice, survival T/C	109 % of control
Cn1nnc2c1C(=O)c1ccccc1C2=O	L1210 leukemia ip in BDF1 mice, survival T/C	97 % of control

# batch: return T/C for each of the 5 compounds below
1. COC(=O)/C=C(/Oc1cccc(C)c1)C(=O)OC
2. O=C(c1ccc(F)cc1)c1ccc2ccccc2c1
3. CN(C)C/C(=C\c1ccccc1)C(=O)c1ccccc1
4. Cc1cc(N(C)C)nc(N(C)C)n1
5. CCOC(=O)C1C2C=CC=CC(=O)C21 (stereo not drawn)

Response:
1. 101 % of control
2. 97 % of control
3. 98 % of control
4. 103 % of control
5. 95 % of control

====

tested on: L1210 leukemia ip in BDF1 mice, survival T/C; assay: NCI In Vivo Anticancer Drug Screen. Data for tumor model L1210 Leukemia (intraperitoneal) in B6D2F1 (BDF1) mice; conditions: endpoint: mean survival time; dose: 50.0 mg/kg/injection; schedule: Q04DX002 (ip); vehicle: Klucel (hydroxypropylcellulose) (HPC); higher = longer survival
Toxic doses and inconclusive results are not listed.
For each record, write down the corresponding T/C.

compound	T/C
CCOC(=O)NC(CCN(C)C)(c1cccc2ccccc12)C(C)C (centres undefined)	100 % of control
CC1(C)CC(=O)C2=C(C1)Nc1ccc(Cl)cc1NC2c1ccccc1 (centres undefined)	106 % of control
N#CCc1ccc(Cl)cc1Cl	87 % of control
O=c1ccn(CCCOc2ccccc2)c(=O)[nH]1	102 % of control

# batch: return T/C for each of the 5 compounds below
1. Clc1ccc(SCSc2nc3ccccc3s2)cc1
2. O=C(O)c1cccc2c1oc1c(O)cccc12
3. O=C(C1C(c2ccccc2)C1c1ccccc1)N(CCO)Cc1ccccc1 (centres undefined)
4. NC(=S)N/N=C/c1cccn1Cc1cc2c(cc1[N+](=O)[O-])OCO2
5. N#CC1(N2CCC3(CC2)OCCO3)CCCCC1

Response:
1: 86 % of control; 2: 90 % of control; 3: 103 % of control; 4: 96 % of control; 5: 96 % of control

====

Test system: L1210 leukemia ip in BDF1 mice, survival T/C
Test: NCI In Vivo Anticancer Drug Screen. Data for tumor model L1210 Leukemia (intraperitoneal) in B6D2F1 (BDF1) mice
Settings: endpoint: mean survival time; dose: 100.0 mg/kg/injection; schedule: Q01DX009 (ip); vehicle: water; higher = longer survival
Method: The antitumor activity of compounds was measured in mice bearing transplantable tumors. Survival or tumor size were measured and the results are expressed as the measurement made in the treated group (T) divided by the measurement made in the vehicle treated control group (C). The tumor model used in this assay is L1210 Leukemia (intraperitoneal) in B6D2F1 (BDF1) mice
Inconclusive results and toxic doses are left out.
measurement type: T/C

Examples from the recorded data:
structure as smiles	experimental result
c1ccc2c(c1)Cc1nc3ccccc3nc1-2	101 % of control
NNC(=O)c1ccccn1	97 % of control
COc1ccc(CCO)cc1OC	93 % of control

Query compound follows.
Measured T/C, OCc1nccn1Cc1ccccc1 : 100 % of control

====

For each record, write down the corresponding T/C.
tested on: L1210 leukemia ip in BDF1 mice, survival T/C; assay: NCI In Vivo Anticancer Drug Screen. Data for tumor model L1210 Leukemia (intraperitoneal) in B6D2F1 (BDF1) mice; settings: endpoint: mean survival time; dose: 400.0 mg/kg/injection; schedule: Q04DX003 (ip); vehicle: Klucel (hydroxypropylcellulose) (HPC); higher = longer survival
Toxic doses and inconclusive results are not listed.

Examples from the recorded data:
structure as smiles	experimental system	T/C
Cc1cc2c(cc1C)NC(=O)CC(=O)N2	L1210 leukemia ip in BDF1 mice, survival T/C	89 % of control
CC(=O)N=c1ccc(C)cn1O	L1210 leukemia ip in BDF1 mice, survival T/C	102 % of control
O=C(c1ccc(OC(F)F)cc1)N1CCCCC1	L1210 leukemia ip in BDF1 mice, survival T/C	96 % of control
O=c1[nH]c2ccccc2n1C1=CCN(Cc2ccccc2)CC1	L1210 leukemia ip in BDF1 mice, survival T/C	112 % of control
O=C(COc1ccccc1Cl)NCc1ccc(Cl)cc1	L1210 leukemia ip in BDF1 mice, survival T/C	93 % of control

Query compound follows.
Measured T/C, Cc1ccc([Si](C)(C)[Si](C)C)cc1 : 105 % of control

====

For each record, write down the corresponding T/C.
Tested on: L1210 leukemia ip in BDF1 mice, survival T/C
Assay: NCI In Vivo Anticancer Drug Screen. Data for tumor model L1210 Leukemia (intraperitoneal) in B6D2F1 (BDF1) mice
Conditions: endpoint: mean survival time; dose: 25.0 mg/kg/injection; schedule: Q01DX009 (ip); vehicle: saline with Tween-80; higher = longer survival
Description: The antitumor activity of compounds was measured in mice bearing transplantable tumors. Survival or tumor size were measured and the results are expressed as the measurement made in the treated group (T) divided by the measurement made in the vehicle treated control group (C). The tumor model used in this assay is L1210 Leukemia (intraperitoneal) in B6D2F1 (BDF1) mice
Toxic doses and inconclusive results are not listed.

Examples from the recorded data:
compound	T/C
O=C(NCCNC(c1ccccc1)C(NCCNC(=O)c1ccccc1)c1ccccc1)c1ccccc1 (stereo not given)	94 % of control
COC(=O)Nc1cccc(NC(=O)C(=O)O)c1	105 % of control
O=C(CC(=O)C(F)(F)F)c1ccccc1.O=C(CC(=O)C(F)(F)F)c1ccccc1.[Cu]	92 % of control
NC(=S)N=Nc1c(O)[nH]c(=O)[nH]c1=O	104 % of control

# batch: return T/C for each of the 6 compounds below
1. O=C(O)c1ccc(N=Nc2ncc[nH]2)cc1
2. c1ccc(-c2ccccc2NC2=NCCO2)cc1
3. OC(CCl)Cc1ccccc1 (stereo not given)
4. CN/N=C/c1ccccc1
5. CCCCCCCCCCCCCCC(F)C(=O)OCC1OC(CO)(OC2OC(CO)C(O)C(O)C2O)C(O)C1O (stereo not given)
6. O=C(Cn1cc[n+](CC(=O)c2ccccc2)c1)c1ccccc1

Response:
1. 96 % of control
2. 94 % of control
3. 93 % of control
4. 107 % of control
5. 98 % of control
6. 98 % of control

# batch: return T/C for each of the 5 compounds below
1. Cc1ccc(-n2c(=S)[nH]c3ccc(C)cc3c2=O)cc1
2. CC(C)(O)C(=O)N/N=C/c1ccc(Cl)cc1Cl
3. COc1cc(C2NC(=S)NC2=S)ccc1O (stereo not given)
4. CCCCC(=O)N(c1ccc(Nc2c3ccccc3nc3cc([N+](=O)[O-])ccc23)cc1)S(C)(=O)=O
5. NNc1cccc(C(F)(F)F)c1

Response:
1. 87 % of control
2. 102 % of control
3. 104 % of control
4. 95 % of control
5. 94 % of control
